The reported measurements were obtained from patent US6638943B2.

target: human α2b-AR (Homo sapiens)
Construct: expressed in transfected cells
Sequence (P18089 1-450): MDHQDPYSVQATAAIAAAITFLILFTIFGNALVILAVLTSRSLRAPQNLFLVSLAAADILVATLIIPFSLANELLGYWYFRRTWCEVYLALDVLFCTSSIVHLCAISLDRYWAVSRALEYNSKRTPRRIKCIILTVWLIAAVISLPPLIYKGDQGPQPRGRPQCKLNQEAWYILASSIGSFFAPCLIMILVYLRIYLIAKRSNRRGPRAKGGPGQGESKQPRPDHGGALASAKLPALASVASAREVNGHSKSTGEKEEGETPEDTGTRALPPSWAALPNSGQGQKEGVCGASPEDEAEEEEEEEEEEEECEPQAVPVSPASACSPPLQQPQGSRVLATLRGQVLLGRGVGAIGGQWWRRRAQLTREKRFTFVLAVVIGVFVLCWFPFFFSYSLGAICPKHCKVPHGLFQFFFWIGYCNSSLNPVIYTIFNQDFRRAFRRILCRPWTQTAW
test method notes: [3H]Rauwolscine equilibrium competition binding, human α2b-AR expressed in CHO cells
condition: [3H]rauwolscine 2.54 nM, mean ± SEM of four to nine experiments, read-out: Ki = SEM (nM) α2b-AR
So basically, if Ki comes in under 1000 nM it's yes (1), and if it's 1000 nM or more it's no (0).

Solved cases below.
Query string: Strictly below 1000 nM in Ki? O=C(NCCCCCCCCCCNC(=O)[C@@H]1[C@H]2C[C@H]3c4[nH]c5ccccc5c4CCN3C[C@@H]2CC[C@@H]1O)[C@@H]1[C@H]2C[C@H]3c4[nH]c5ccccc5c4CCN3C[C@@H]2CC[C@@H]1O
Result string: yes (1)

Query string: Strictly below 1000 nM in Ki? O=C(NCCCCCCNC(=O)[C@@H]1[C@H]2C[C@H]3c4[nH]c5ccccc5c4CCN3C[C@@H]2CC[C@@H]1O)[C@@H]1[C@H]2C[C@H]3c4[nH]c5ccccc5c4CCN3C[C@@H]2CC[C@@H]1O
Result string: yes (1)

More entries:
Query string: Strictly below 1000 nM in Ki? O=C(NCCCCNC(=O)[C@@H]1[C@H]2C[C@H]3c4[nH]c5ccccc5c4CCN3C[C@@H]2CC[C@@H]1O)[C@@H]1[C@H]2C[C@H]3c4[nH]c5ccccc5c4CCN3C[C@@H]2CC[C@@H]1O
Result string: yes (1)

Query string: Strictly below 1000 nM in Ki? O=C(NCCCCCCCCNC(=O)[C@@H]1[C@H]2C[C@H]3c4[nH]c5ccccc5c4CCN3C[C@@H]2CC[C@@H]1O)[C@@H]1[C@H]2C[C@H]3c4[nH]c5ccccc5c4CCN3C[C@@H]2CC[C@@H]1O
Result string: yes (1)

Query string: Strictly below 1000 nM in Ki? O=C(NCCNC(=O)[C@@H]1[C@H]2C[C@H]3c4[nH]c5ccccc5c4CCN3C[C@@H]2CC[C@@H]1O)[C@@H]1[C@H]2C[C@H]3c4[nH]c5ccccc5c4CCN3C[C@@H]2CC[C@@H]1O
Result string: no (0)

---

target: human α2b-AR (Homo sapiens, UniProt P18089)
Construct: expressed in transfected cells
test method notes: [3H]Rauwolscine equilibrium competition binding, human α2b-AR expressed in CHO cells
condition: Table 2, mean ± SEM of n = 4-6, read-out: pKi α2b-AR (converted)
value type: Ki (nM)
Hi! Could you send only the number? It should be in nM, unit omitted.

# example entries with known answers
// Ki lookup, compound = O=C(NCCCCNC(=O)[C@@H]1[C@H]2C[C@H]3c4[nH]c5ccccc5c4CCN3C[C@@H]2CC[C@@H]1O)[C@@H]1[C@H]2C[C@H]3c4[nH]c5ccccc5c4CCN3C[C@@H]2CC[C@@H]1O , result: 398

// Ki lookup, compound = O=C(NCCCCCCNC(=O)[C@@H]1[C@H]2C[C@H]3c4[nH]c5ccccc5c4CCN3C[C@@H]2CC[C@@H]1O)[C@@H]1[C@H]2C[C@H]3c4[nH]c5ccccc5c4CCN3C[C@@H]2CC[C@@H]1O , result: 288

// Ki lookup, compound = O=C(NCCNC(=O)[C@@H]1[C@H]2C[C@H]3c4[nH]c5ccccc5c4CCN3C[C@@H]2CC[C@@H]1O)[C@@H]1[C@H]2C[C@H]3c4[nH]c5ccccc5c4CCN3C[C@@H]2CC[C@@H]1O , result: 3160

Could you now consider this next compound?
// Ki lookup, compound = O=C(NCCCNC(=O)[C@@H]1[C@H]2C[C@H]3c4[nH]c5ccccc5c4CCN3C[C@@H]2CC[C@@H]1O)[C@@H]1[C@H]2C[C@H]3c4[nH]c5ccccc5c4CCN3C[C@@H]2CC[C@@H]1O , result: 2040
